molecular target: MERTK (Homo sapiens)
Sequence (Q12866 571-864): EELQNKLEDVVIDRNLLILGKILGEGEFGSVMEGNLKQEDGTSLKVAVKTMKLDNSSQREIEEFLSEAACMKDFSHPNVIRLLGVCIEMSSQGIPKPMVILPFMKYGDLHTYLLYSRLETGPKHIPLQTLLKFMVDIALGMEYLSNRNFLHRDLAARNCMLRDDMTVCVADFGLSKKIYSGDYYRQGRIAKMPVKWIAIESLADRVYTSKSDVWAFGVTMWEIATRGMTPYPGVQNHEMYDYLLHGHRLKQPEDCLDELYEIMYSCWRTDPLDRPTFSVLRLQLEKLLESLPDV
measure: Ki (nM)
Output spec: scalar in nM, unitless text.

Challenge: Form: Entry = Nc1nccc(Oc2ccc(NC(=O)c3c[nH]cc(-c4ccc(F)cc4)c3=O)cc2F)c1Cl | System = MERTK (Homo sapiens) | Ki = ____
Response given: 22.4

The origin of these recorded values is paper PMC9534909.
